molecules and their reported MIC
- System: Klebsiella pneumoniae
- protocol: Antibacterial activity against Klebsiella pneumoniae ATCC 13882 after 18 hrs by broth dilution method
- Type: functional
- run.parameters: ATCC 13882, 18 h

The value of MIC measured for the molecule CC1CN(c2c(F)cc3c(=O)c(C(=O)O)cn(C4CC4)c3c2F)CCN1 (stereo not drawn) turned out to be ≤ 0.02 µg/mL

Input CC1CN(c2c(F)cc3c(=O)ccn(C4CC4)c3c2F)CCN1 (stereo not drawn) . Output MIC: > 80 µg/mL

Sample O=CN1CCN(c2cc3c(cc2F)c(=O)ccn3C2CC2)CC1 ; MIC observed: > 80 µg/mL
